Molecular target: Indoleamine 2,3-dioxygenase 2 (Homo sapiens)
Test: Potency index, ratio of D-1-methyl-tryptophan IC50 to compound IC50 for recombinant human IDO2 expressed in human U87MG cells
Assay type: cell-based
Conditions: U-87MG ATCC
measured_attribute: Ratio IC50

Solved cases (4 shown):
line_notation	recorded_result
O=C1c2cc(Br)ccc2-n2c1nc1ccccc1c2=O	46.2
O=C1c2cc(F)ccc2-n2c1nc1ccccc1c2=O	121
O=C1c2ccccc2-n2c1nc1ccc(F)cc1c2=O	3.94
O=C1c2ccccc2-n2c1nc1ccccc1c2=O	29.7

(1) O=C1c2cc([N+](=O)[O-])ccc2-n2c1nc1ccccc1c2=O
(2) O=C1c2cc(F)ccc2-n2c1nc1ccc(F)cc1c2=O
Task: In the pair 1 and 2 , the larger recorded Ratio IC50 belongs to which? I would appreciate it if you answered with the label of your choice.
Result: 1
